Reference for the values: patent US20150104459A1

- SYSTEM_TESTED: recombinant soluble homotrimeric HA of A/Vietnam/1203/04 (H5N1) (Influenza A virus A/Vietnam/1203/2004 (H5N1))
- PROTOCOL: HA microarray, BCC supernatant
- CONDITION_NOTES: remark: other sources report otherwise
Please respond with reported Trimeric HA Binding RLU for every item in the list.
Give bare numbers, in RLU.

Trimeric HA Binding RLU reading for TCN-563 (5237_B21) (antibody, V domains shown) VH: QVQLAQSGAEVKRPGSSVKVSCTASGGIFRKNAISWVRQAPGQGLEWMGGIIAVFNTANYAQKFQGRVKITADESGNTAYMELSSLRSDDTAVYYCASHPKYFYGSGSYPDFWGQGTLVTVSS VL: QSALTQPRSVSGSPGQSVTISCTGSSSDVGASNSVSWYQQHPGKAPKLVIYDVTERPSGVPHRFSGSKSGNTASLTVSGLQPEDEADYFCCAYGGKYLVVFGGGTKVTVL : 4840

I would be grateful if you could provide Trimeric HA Binding RLU for each of the following entries.
1. TCN-557 (5081_A04) (antibody, V domains shown) VH: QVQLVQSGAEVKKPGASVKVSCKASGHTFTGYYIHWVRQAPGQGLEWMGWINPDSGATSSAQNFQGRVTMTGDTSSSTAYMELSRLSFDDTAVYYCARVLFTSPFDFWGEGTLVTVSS VL: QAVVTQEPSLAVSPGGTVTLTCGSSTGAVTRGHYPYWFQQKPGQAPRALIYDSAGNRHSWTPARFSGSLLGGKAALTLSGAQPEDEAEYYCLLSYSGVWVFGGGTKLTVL
2. TCN-527 (5086_C06) (antibody, V domains shown) VH: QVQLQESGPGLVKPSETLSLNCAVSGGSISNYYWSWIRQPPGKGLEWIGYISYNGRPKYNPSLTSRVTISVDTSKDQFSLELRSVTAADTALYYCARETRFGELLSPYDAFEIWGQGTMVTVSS VL: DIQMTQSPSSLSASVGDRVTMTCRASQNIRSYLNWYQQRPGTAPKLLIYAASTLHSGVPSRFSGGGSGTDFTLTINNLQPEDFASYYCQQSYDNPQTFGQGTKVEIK

1. 47300
2. 21300
